Ref: patent US5550243A

Test system: visna virus
Test: microbe, parasite or virus in culture
Format: cell-based
Settings: Visna-maedi virus, read-out: Visna % Plague Redn (Conc)
Short version: inhibition at 100 µM at least 30% is TRUE, less is FALSE.

{"compound": "CCCCN1CC(NC)C(O)C(O)C1CO (stereo not drawn) [Compound 29]", "study_target": "visna virus", "group_label": "FALSE"}
{"compound": "CCCCN1CC(N(C)C)C(O)C(O)C1CO (stereo not drawn) [Compound 28]", "study_target": "visna virus", "group_label": "TRUE"}
{"compound": "CCCCN1CC(NC(=O)CCC)C(O)C(O)C1CO (stereo not drawn) [Compound 30]", "study_target": "visna virus", "group_label": "FALSE"}
{"compound": "CCCCN1CC(N)C(O)C(O)C1CO (stereo not drawn) [Compound 21]", "study_target": "visna virus", "group_label": "TRUE"}

Q: // inclusive: inhibition at 100 µM at least 30%? input: CCCCN1CC(NC(=O)CCC)C(OC(=O)CCC)C(OC(=O)CCC)C1COC(=O)CCC (stereo not drawn) [Compound 31]
A: FALSE

Q: // inclusive: inhibition at 100 µM at least 30%? input: CCCCN1CC(N=[N+]=[N-])C(O)C(O)C1CO (stereo not drawn) [Compound 13]
A: TRUE
